# System Name: Carbonic anhydrase 2 (Homo sapiens)
pKi: −log10 of the molar value.
Parameter: pKi

molecule="O[B-](O)(O)c1ccccc1 [OXO(PHENYL)-BORANEDIOL]" system_name="Carbonic anhydrase 2 (Homo sapiens)" reported=1.31
